Biological target: human FPR1 (Homo sapiens (Human))
Sequence (P21462 whole entry): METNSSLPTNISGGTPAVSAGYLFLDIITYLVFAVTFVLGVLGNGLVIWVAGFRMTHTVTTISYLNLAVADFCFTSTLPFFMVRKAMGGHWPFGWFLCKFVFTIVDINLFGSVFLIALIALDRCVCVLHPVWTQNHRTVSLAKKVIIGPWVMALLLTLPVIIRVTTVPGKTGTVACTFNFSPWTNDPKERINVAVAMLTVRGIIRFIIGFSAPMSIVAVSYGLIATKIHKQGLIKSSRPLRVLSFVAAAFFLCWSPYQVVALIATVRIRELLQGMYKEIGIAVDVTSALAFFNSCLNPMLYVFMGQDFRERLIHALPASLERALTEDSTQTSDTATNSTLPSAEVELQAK
Assay: FPR1 cyclic adenosine monophosphate (cAMP) assay
Details: CHO cells overexpressing human FPR1; forskolin 10 µM; inhibition of cAMP production; read-out: hFPR1 cAMP EC50
Experimental: N-formyl peptide receptors (FPRs) are a family of chemo attractant receptors that facilitate leukocyte response during inflammation. FPRs belong to the seven-transmembrane G protein-coupled receptor superfamily and are linked to inhibitory G-proteins (Gi). […] FPR2 and FPR1 Cyclic Adenosine Monophosphate (cAMP) Assays. […] The level of intracellular cAMP was determined using the HTRF HiRange cAMP assay reagent kit (Cisbio) according to manufacturer’s instruction. […]
pEC50: −log10 of the molar value.
Attribute: pEC50
measuredProperty: pEC50

| compound | boundSign | experimentalValue |
| --- | --- | --- |
| COc1cc(F)c([C@@H]2CN(c3c(C)ccn(C4CCS(=O)(=O)CC4)c3=O)C(=O)[C@H]2NC(=O)c2ccc(OC(F)(F)F)cc2)c(F)c1 | = | 8.70 |
| COCCn1cccc(N2C[C@@H](c3c(F)cc(OC)cc3F)[C@H](NC(=O)c3ccc(C)cc3)C2=O)c1=O | = | 6.02 |
| COc1cc(F)c([C@@H]2CN(c3cncn(C4CCN(C)C4)c3=O)C(=O)[C@H]2NC(=O)c2ccc(Cl)cc2)c(F)c1 (stereo partly drawn) [Example 721] | < | 5.30 |

###

biological target: human FPR2 (Homo sapiens (Human)); assay: FPR2 cyclic adenosine monophosphate (cAMP) assay; conditions: CHO cells overexpressing human FPR2; forskolin 5 µM; inhibition of cAMP production; read-out: hFPR2 cAMP2 EC50
// reported EC50 for each item listed

| molecule | targetOfAssay | EC50, nM |
| --- | --- | --- |
| COc1cc(F)c([C@@H]2CN(c3cccn(C(CO)C(F)(F)F)c3=O)C(=O)[C@H]2NC(=O)c2ccc(OC(F)F)cc2)c(F)c1 (stereo partly drawn) [Example 583] | human FPR2 (Homo sapiens (Human)) | 3.8 |
| COc1cc(F)c([C@@H]2CN(c3c(C)ccn(CC(O)C4CC4)c3=O)C(=O)[C@H]2NC(=O)c2ccc(OC(F)(F)F)cc2)c(F)c1 (stereo partly drawn) | human FPR2 (Homo sapiens (Human)) | 13 |
| COc1cc(F)c([C@@H]2CN(c3c(C)ccn(CC(C)O)c3=O)C(=O)[C@H]2NC(=O)c2ccc(Cl)cc2)c(F)c1 (stereo partly drawn) [Example 581] | human FPR2 (Homo sapiens (Human)) | 1.3 |
| COCCn1cccc(N2C[C@@H](c3ccc(Cl)cc3)[C@H](NC(=O)c3ccc(OC(F)F)cc3)C2=O)c1=O | human FPR2 (Homo sapiens (Human)) | 4.1 |
| COc1cc(F)c([C@@H]2CN(c3cccn(C)c3=O)C(=O)[C@H]2NC(=O)c2ccc(Cl)cc2)c(F)c1 | human FPR2 (Homo sapiens (Human)) | 5.1 |
| COc1cc(F)c([C@@H]2CN(c3nc(C4CCOCC4)ccc3F)C(=O)[C@H]2NC(=O)c2ccc(OC(F)F)cc2)c(F)c1 | human FPR2 (Homo sapiens (Human)) | 10 |

###

molecular target: human FPR2 (Homo sapiens (Human), UniProt P25090); experiment: FPR2 cyclic adenosine monophosphate (cAMP) assay; details: CHO cells overexpressing human FPR2; forskolin 5 µM; inhibition of cAMP production; read-out: hFPR2 cAMP2 EC50
Sequence (P25090 whole entry): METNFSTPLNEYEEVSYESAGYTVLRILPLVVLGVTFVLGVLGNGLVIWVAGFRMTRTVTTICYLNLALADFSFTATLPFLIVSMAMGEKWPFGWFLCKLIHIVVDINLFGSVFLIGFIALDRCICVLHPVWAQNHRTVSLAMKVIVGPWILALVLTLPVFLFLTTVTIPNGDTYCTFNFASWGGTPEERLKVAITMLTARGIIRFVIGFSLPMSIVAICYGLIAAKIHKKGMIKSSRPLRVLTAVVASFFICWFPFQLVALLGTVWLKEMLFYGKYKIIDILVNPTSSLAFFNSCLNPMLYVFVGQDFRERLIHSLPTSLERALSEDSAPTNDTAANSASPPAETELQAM
pEC50: −log10 of the molar value.
measuredProperty: pEC50

| compound | measuredProperty | experimentalValue |
| --- | --- | --- |
| CCn1c2c(cc(N3C[C@@H](c4c(F)cc(OC)cc4F)[C@H](NC(=O)c4ccc(Cl)cc4)C3=O)c1=O)CCCC2 | pEC50 | 8.80 |
| COc1cc(F)c([C@@H]2CN(c3cc(C)cc(N4C[C@@H]5C[C@H]4CN5C)n3)C(=O)[C@H]2NC(=O)c2ccc(OC(F)(F)F)cc2)c(F)c1 | pEC50 | 8.22 |
| COc1ccc([C@@H]2CN(c3c(C)ccn(CCC(F)(F)F)c3=O)C(=O)[C@H]2NC(=O)c2ccc(Cl)cc2)cc1 [Example 386] | pEC50 | 8.62 |
| COc1cc(F)c([C@@H]2CN(c3cccn(CC(OC)C(F)(F)F)c3=O)C(=O)[C@H]2NC(=O)c2ccc(OC(F)(F)F)cc2)c(F)c1 (stereo partly drawn) [Example 156] | pEC50 | 8.40 |
| COc1cc(F)c([C@@H]2CN(c3ncccc3C(F)(F)F)C(=O)[C@H]2NC(=O)c2ccc(OC(F)F)cc2)c(F)c1 | pEC50 | 8.00 |
| COc1cc(F)c([C@@H]2CN(c3nccc(NCC(C)O)c3C(F)(F)F)C(=O)[C@H]2NC(=O)c2ccc(OC(F)F)cc2)c(F)c1 (stereo partly drawn) [Example 234] | pEC50 | 8.20 |
